Data origin, for the record: PubChem BioAssay (NCI)

- System: SF-295 CNS
- test_details: NCI-60 one-dose screen, 48 h (100 = growth as untreated, 0 = no growth, -100 = all killed)
- setup_conditions: 10 µM unless noted
- Experimental: Cells are grown in 96 well plates and exposed to the test compound for 48 hours. Compounds are tested at a single concentration, which is 10^-5 M for most compounds. The reported endpoint is percent growth (GI% or GIPRCNT), where numbers from 0 - 100% represent growth inhibition, and numbers from -100% - 0 represent cell death. For example, a value of 40 represents 60% growth inhibition. A value of 0 means no net growth occurred over the course of the experiment. […]
About 83,000 compounds went through this panel and 20% of them were active in at least one assay; those are over-represented in the sample as a whole.
quantity_kind: growth (%)
# output: bare number, implied unit %

INPUT: Query (compound): CC(=O)c1cc2c(c(O)c1C)C(=O)C(=O)c1c(O)cccc1-2 ; field requested: growth
OUTPUT: -82.5

INPUT: Query (compound): CC(C)(CCN=C(N)Nc1ccccn1)c1ccc(C(F)(F)F)cc1 ; field requested: growth
OUTPUT: 6.92

INPUT: Query (compound): CSc1ccc(C(=O)C[n+]2cccc(C)c2)cc1 ; field requested: growth
OUTPUT: 98.4

INPUT: Query (compound): CCCCCC/C=N/Nc1ccc([N+](=O)[O-])cn1 ; field requested: growth
OUTPUT: 95.3

INPUT: Query (compound): CC(Cc1cccc(C(F)(F)F)c1)NCCOC(=O)c1ccccc1 (stereo not given) ; field requested: growth
OUTPUT: 98.4

INPUT: Query (compound): COc1cc(/C=C/C(=O)N2CCC=CC2=O)cc(OC)c1OC ; field requested: growth
OUTPUT: 94.1

INPUT: Query (compound): Cc1cccc(NC(=O)CCc2ccc(N3C(N)=NC(N)=NC3(C)C)cc2)c1 ; field requested: growth
OUTPUT: 64.9

INPUT: Query (compound): COc1ccc(/C=C/C(=O)c2ccc(NC(=O)CSc3nnc(-c4cc(OC)c(OC)c(OC)c4)o3)cc2)cc1 ; field requested: growth
OUTPUT: 57.6

INPUT: Query (compound): COc1ccc(Cl)cc1NC(=O)c1cc2c([nH]1)-c1nc(NC(=O)C(C)(C)C)sc1CC2 ; field requested: growth
OUTPUT: 84.2

INPUT: Query (compound): Cc1cc(SCc2ccc(Cl)cc2Cl)nc(SCc2ccc(Cl)cc2Cl)n1 ; field requested: growth
OUTPUT: 95.8

* * *

Kindly state growth for each of the entries shown.
- Test system: COLO 205 colon
- test_details: NCI-60 one-dose screen, 48 h (100 = growth as untreated, 0 = no growth, -100 = all killed)
- setup_conditions: 10 µM unless noted
The panel holds about 83,000 compounds, 20% with a hit somewhere; the sample as a whole holds those more often.
# output: bare number, implied unit %

INPUT: Query (compound): CCN(CC)CC(=O)Nc1c(C)cccc1C ; field requested: growth
OUTPUT: 115

INPUT: Query (compound): COc1ccc2c(c1)/C(=C/c1c(-c3cc(OC)c(OC)c(OC)c3Br)nc3sccn13)C(=O)N2 ; field requested: growth
OUTPUT: 117

INPUT: Query (compound): CCCCNC(=O)Oc1ccc(/C(=C(/CC)Cc2ccccc2)c2ccc(OCCCN(C)C)cc2)cc1 ; field requested: growth
OUTPUT: 20.5

INPUT: Query (compound): CN(C)CC/C=C1\c2ccccc2Sc2ccc(Cl)cc21 ; field requested: growth
OUTPUT: -40.1

INPUT: Query (compound): O=C1c2ccccc2C(=O)c2c(NCCN=Cc3c(O)ccc4ccccc34)cccc21 ; field requested: growth
OUTPUT: 85.3

INPUT: Query (compound): CNCCCOc1c(Br)cc(CCNC(=O)/C(Cc2cc(Br)c(OC)c(Br)c2)=N/O)cc1Br ; field requested: growth
OUTPUT: -72

INPUT: Query (compound): C=CC(=O)NC(=O)Nc1ccccc1Cl ; field requested: growth
OUTPUT: 88.9

INPUT: Query (compound): CCC1S/C(=N\N=C(/C)c2ccco2)N(c2ccccc2)C1=O (stereo unspecified) ; field requested: growth
OUTPUT: 117

INPUT: Query (compound): CCOC(=O)C1CSC(C)(C(=O)OCC)N1 (stereo unspecified) ; field requested: growth
OUTPUT: 105

INPUT: Query (compound): CCN(CC)c1ccc(C2CC(c3cc(OC)c(OC)c(OC)c3)=NN2)cc1 (stereo unspecified) ; field requested: growth
OUTPUT: -25.7

INPUT: Query (compound): CN(C)C(=O)Nc1nc2cc(Cl)c(Cl)cc2[nH]1 ; field requested: growth
OUTPUT: -12.9

* * *

- Tested on: LOX IMVI melanoma
- test_details: NCI-60 one-dose screen, 48 h (100 = growth as untreated, 0 = no growth, -100 = all killed)
- setup_conditions: 10 µM unless noted
- Method: Growth inhibition of the LOX IMVI human tumor cell line is measured as a screen for anti-cancer activity. Cells are grown in 96 well plates and exposed to the test compound for 48 hours. Compounds are tested at a single concentration, which is 10^-5 M for most compounds. The reported endpoint is percent growth (GI% or GIPRCNT), where numbers from 0 - 100% represent growth inhibition, and numbers from -100% - 0 represent cell death. For example, a value of 40 represents 60% growth inhibition. […]
Compounds without any hit were thinned out: in the full panel of roughly 83,000, 20% have a hit.
Kindly state growth for each of the entries shown.
# output: bare number, implied unit %

INPUT: Query (compound): C#C[C@H](O)/C=C/CCCCCCC#C[C@H](O)CC[C@@H](O)C#CCCCCCC/C=C/[C@@H](O)C#C ; field requested: growth
OUTPUT: -71.2

INPUT: Query (compound): C=C1C(=O)O[C@H]2[C@H]1CC/C(COC(=O)c1ccc(Cl)nc1)=C\CC[C@@]1(C)O[C@@H]21 ; field requested: growth
OUTPUT: -79.3

INPUT: Query (compound): O=C(NC(=S)Nc1ccc(Cl)cc1)c1ccccc1 ; field requested: growth
OUTPUT: 106

INPUT: Query (compound): S=c1[nH]nc(Cn2c3ccccc3c3ccncc32)o1 ; field requested: growth
OUTPUT: 97.8

INPUT: Query (compound): O=C(Nc1ccc(-n2cc(-c3ccncc3)c(-c3ccc(O)c(Cl)c3)n2)cc1)c1ccc(Cl)c(C(F)(F)F)c1 ; field requested: growth
OUTPUT: -47.6

INPUT: Query (compound): C#CCn1c(-c2cc(OC)c(OC)cc2Br)nc(-c2ccccc2)c1-c1ccccc1 ; field requested: growth
OUTPUT: 34.9

INPUT: Query (compound): O=C1/C(=C/c2cccc3cnccc23)Cc2cc(F)ccc21 ; field requested: growth
OUTPUT: 93

INPUT: Query (compound): COc1ccc(C2CC(c3cc(Cl)c(C)cc3OC)=NN2c2ccc(S(N)(=O)=O)cc2)cc1OC (stereo not given) ; field requested: growth
OUTPUT: 77.9

INPUT: Query (compound): CCOc1ccc(NC(=O)Nc2cc(C(C)C)ccc2C)cc1 ; field requested: growth
OUTPUT: 71.2

INPUT: Query (compound): O=[N+]([O-])c1ccc(NS(=O)(=O)c2cc(Cl)ccc2Cl)c2ccccc12 ; field requested: growth
OUTPUT: 56.4

* * *

- System: SK-OV-3 ovarian
- test_details: NCI-60 one-dose screen, 48 h (100 = growth as untreated, 0 = no growth, -100 = all killed)
- setup_conditions: 10 µM unless noted
About 83,000 compounds went through this panel and 20% of them were active in at least one assay; those are over-represented in the sample as a whole.
Kindly state growth for each of the entries shown.
# output: bare number, implied unit %

INPUT: Query (compound): CCCCNC(=O)Oc1ccc(/C(=C(/CC)Cc2ccccc2)c2ccc(OCCCN(C)C)cc2)cc1 ; field requested: growth
OUTPUT: 97.6

INPUT: Query (compound): CCCCCCCCCCCC(=O)OCCNC(=O)C[n+]1ccccc1 ; field requested: growth
OUTPUT: 96.7

INPUT: Query (compound): OC[C@@H](O)C(O[C@@H]1O[C@H](CO)[C@H](O)[C@H](O)[C@H]1O)[C@H](O)[C@@H](O)CO (stereo not given in full) ; field requested: growth
OUTPUT: 99.5

INPUT: Query (compound): C=C1C(=O)O[C@H]2[C@H]1CC/C(COC(=O)c1ccc3ccccc3c1)=C\CC[C@@]1(C)O[C@@H]21 ; field requested: growth
OUTPUT: 82.6

INPUT: Query (compound): CC(C)(C)OC(=O)NCc1cccc(N=C=S)c1 ; field requested: growth
OUTPUT: 88.2

* * *

- Tested on: MDA-MB-231 breast
- test_details: NCI-60 one-dose screen, 48 h (100 = growth as untreated, 0 = no growth, -100 = all killed)
- setup_conditions: 10 µM unless noted
About 83,000 compounds went through this panel and 20% of them were active in at least one assay; those are over-represented in the sample as a whole.
Please mark 1.0 if the recorded growth is equal to or greater than 50%, and 0.0 if it falls below.

INPUT: Check the entry O=C(Nc1ccc(-n2ccc3c(NC(=O)c4ccccc4)ncnc32)cc1)Nc1ccc(Cl)c(Cl)c1 : does growth equal or exceed 50%?
OUTPUT: 0.0

INPUT: Check the entry COc1cc(-c2nc3ccccc3s2)ccc1OCc1nc2n(n1)S(=O)(=O)c1ccccc1N2c1ccccc1 : does growth equal or exceed 50%?
OUTPUT: 1.0

INPUT: Check the entry CCCCCCCC(=O)SCC/C=C/[C@@H]1CC(=O)NCc2nc(cs2)C2=N[C@@](C)(CS2)C(=O)N[C@@H](C(C)C)C(=O)N1 : does growth equal or exceed 50%?
OUTPUT: 0.0

INPUT: Check the entry COc1cc2ncn3c(=O)c4c5c(sc4nc3c2cc1OC)CCCCC5 : does growth equal or exceed 50%?
OUTPUT: 1.0

INPUT: Check the entry O=C(CNc1cccnc1)Nc1ccc(C(=O)/C=C/c2ccc(Cl)cc2)cc1 : does growth equal or exceed 50%?
OUTPUT: 1.0

INPUT: Check the entry S=c1n(CNc2ccc(Cl)nn2)nc(-c2cc(Cl)cc(Cl)c2Cl)n1/N=C/c1ccc(Cl)cc1 : does growth equal or exceed 50%?
OUTPUT: 1.0

INPUT: Check the entry Cc1cn(C2CC(F)C(CO)O2)c(=O)[nH]c1=O (stereo not drawn) : does growth equal or exceed 50%?
OUTPUT: 1.0

INPUT: Check the entry O=[N+]([O-])c1ccccc1NC1c2ccccc2Oc2ccccc21 : does growth equal or exceed 50%?
OUTPUT: 1.0

INPUT: Check the entry COc1ccc(Cn2cc3c(c2-c2cc(OC)c(OC)c(OC)c2)CCc2c(CO)noc2-3)cc1 : does growth equal or exceed 50%?
OUTPUT: 0.0

INPUT: Check the entry COc1cc(-c2nc(SCC(=O)Nc3ccc(C(C)=O)cc3)[nH]c(=O)c2C#N)cc(OC)c1OC : does growth equal or exceed 50%?
OUTPUT: 0.0

INPUT: Check the entry COc1ccc(-c2nn(-c3ccc(NC(=O)Nc4ccc(Cl)c(C(F)(F)F)c4)cc3)cc2-c2ccncc2)cc1Cl : does growth equal or exceed 50%?
OUTPUT: 0.0

INPUT: Check the entry Nc1ncnc2c1ccn2-c1cccc(NC(=O)c2cccc(C(F)(F)F)c2)c1 : does growth equal or exceed 50%?
OUTPUT: 1.0
